- Tested On: FRMPD2_2, Q68DX3
- Sequence (Q68DX3 944-1038): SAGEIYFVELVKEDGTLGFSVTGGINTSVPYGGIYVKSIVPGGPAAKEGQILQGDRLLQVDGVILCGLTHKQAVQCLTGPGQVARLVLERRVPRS
- Protocol Text: holdup assay
- Parameters: key: below the threshold = too weak to quantify, mostly under pKd 3.1 to 4
- Condition: plain residues with an end cap or a label only (N-terminal biotin on a linker: ttds)
Property Label: pKd

binder="QRQARSETLV [HPV59-E6, Q81964]" measured_value=3.95
binder="EMDRRPATVV [PLCB4, Q15147]" measured_value=3.78
